The measurements presented in this section are drawn from ChEMBL document CHEMBL4680079.

target: UniProt:Q12809; experiment: Inhibition of human ERG by IonWorks patch-clamp electrophysiology method
Sequence (Q12809 whole entry): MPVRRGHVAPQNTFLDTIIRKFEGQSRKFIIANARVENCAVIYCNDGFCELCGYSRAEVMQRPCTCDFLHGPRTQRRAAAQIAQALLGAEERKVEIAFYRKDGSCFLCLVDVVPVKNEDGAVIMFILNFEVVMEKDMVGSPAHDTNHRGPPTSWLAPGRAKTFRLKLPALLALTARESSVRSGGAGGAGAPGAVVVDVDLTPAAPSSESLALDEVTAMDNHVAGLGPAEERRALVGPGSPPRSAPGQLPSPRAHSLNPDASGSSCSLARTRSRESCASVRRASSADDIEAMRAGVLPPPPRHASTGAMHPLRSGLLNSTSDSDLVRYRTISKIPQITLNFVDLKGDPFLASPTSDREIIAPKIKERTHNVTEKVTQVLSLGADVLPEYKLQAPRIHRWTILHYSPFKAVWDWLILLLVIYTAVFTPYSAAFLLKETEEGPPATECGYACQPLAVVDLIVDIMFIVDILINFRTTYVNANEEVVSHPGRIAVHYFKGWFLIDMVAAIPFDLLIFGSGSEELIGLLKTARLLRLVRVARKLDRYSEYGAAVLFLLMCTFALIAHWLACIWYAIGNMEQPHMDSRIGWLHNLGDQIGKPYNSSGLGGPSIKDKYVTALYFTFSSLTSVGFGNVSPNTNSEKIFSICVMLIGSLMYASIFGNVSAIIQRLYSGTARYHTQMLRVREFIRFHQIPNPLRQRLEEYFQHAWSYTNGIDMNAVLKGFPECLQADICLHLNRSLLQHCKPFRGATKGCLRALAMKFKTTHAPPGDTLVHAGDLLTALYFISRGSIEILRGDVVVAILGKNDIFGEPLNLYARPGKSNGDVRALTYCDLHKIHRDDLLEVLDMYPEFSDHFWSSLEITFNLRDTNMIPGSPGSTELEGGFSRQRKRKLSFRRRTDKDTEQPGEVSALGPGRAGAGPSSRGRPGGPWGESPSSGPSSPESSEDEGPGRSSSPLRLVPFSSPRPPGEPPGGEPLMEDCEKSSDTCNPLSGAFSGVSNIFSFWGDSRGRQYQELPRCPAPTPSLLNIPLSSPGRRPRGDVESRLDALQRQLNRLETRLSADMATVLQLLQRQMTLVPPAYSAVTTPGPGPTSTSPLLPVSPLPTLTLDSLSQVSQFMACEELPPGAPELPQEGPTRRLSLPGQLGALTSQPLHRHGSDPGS
READOUT_NAME: IC50

For each listed entry, give its IC50.
1. O=C(NCCN1CCCC1)c1cc(NCCCN2CCOCC2)nc2ccc(F)cc12
2. O=C(NCCN1CCCC1)c1cc(NCCC2CCOCC2)nc2ccc(Cl)cc12
3. O=C(NCCN1CCCC1)c1cc(NCCCCN2CCOCC2)nc2ccc(Cl)cc12

*A*
> 11 µM
> 11 µM
> 11 µM

Hi, could you look up IC50 for each item in my list?
1. O=C(NCCN1CCCC1)c1cc(-c2ccc(CN3CCOCC3)cc2)nc2ccc(F)cc12
2. O=C(NCCN1CCCC1)c1cc(-c2ccc(S(=O)(=O)N3CCOCC3)cc2)nc2ccc(F)cc12

*A*
["16 µM", "11 µM"]

====

For each entry below, report its bioavailability value.
experiment: Oral bioavailability in NMRI mouse at 10 mg/kg administered via gavage by UPLC-MS/MS analysis; assay type: ADME, organism-based; conditions: in vivo
One number for each entry, in %.

Sample answers from the record:
*Q* Recorded bioavailability for O=C(NCCN1CCCC1)c1cc(NCCC2CCOCC2)nc2ccc(Cl)cc12 , please?
*A* 23

*Q* Can you check O=C(NCCN1CCCC1)c1cc(NCCCN2CCOCC2)nc2ccc(F)cc12 next?
*A* 15

*Q* Also need O=C(NCCN1CCCC1)c1cc(-c2ccc(CN3CCOCC3)cc2)nc2ccc(F)cc12 [CABAMIQUINE] , thanks.
*A* 74

Could you now consider this next molecule?
*Q* Fill in: bioavailability of O=C(NCCN1CCCC1)c1cc(NCCCCN2CCOCC2)nc2ccc(Cl)cc12 is ___
*A* 16

====

assay: Half-life in NMRI mouse at 3 mg/kg, iv administered as bolus dose by UPLC-MS/MS analysis; assay type: ADME, organism-based; conditions: in vivo
Kindly state half-life for each of the entries shown.
Answers are plain numbers, in h.

Reference set, count: 2
*Q* State the recorded half-life for this entry: O=C(NCCN1CCCC1)c1cc(NCCC2CCOCC2)nc2ccc(Cl)cc12
*A* 2.9

*Q* Let us now turn to O=C(NCCN1CCCC1)c1cc(NCCCN2CCOCC2)nc2ccc(F)cc12
*A* 3.2

Would you kindly look at the next entry?
*Q* Look up half-life: O=C(NCCN1CCCC1)c1cc(NCCCCN2CCOCC2)nc2ccc(Cl)cc12
*A* 12.5

====

test: AUC in Sprague-Dawley rat at 5 mg/kg, po administered via gavage by UPLC-MS/MS analysis; format: ADME, organism-based; design: dose 5 mg/kg; conditions: in vivo
READOUT_NAME: AUC (ng·h/mL)
Answers are plain numbers, in ng·h/mL.

*Q* AUC lookup needed for O=C(NCCN1CCCC1)c1cc(-c2ccc(CN3CCOCC3)cc2)nc2ccc(F)cc12 , thanks.
*A* 3340

====

tested on: Plasmodium berghei; assay: Antiplasmodial activity against Plasmodium berghei ANKA infected in NMRI mouse assessed as reduction in parasitemia at 30 mg/kg, po QD for 4 days; format: functional; design: scale not given: the % may be the effect or the level left; conditions: time 4 day
READOUT_NAME: Activity (%)
Numbers only, in %.

Hi team, please reply with Activity for each item in this list.
1. O=C(NCCN1CCCC1)c1cc(-c2ccc(CN3CCOCC3)cc2)nc2ccc(F)cc12
2. O=C(NCCN1CCCC1)c1cc(NCCCCN2CCOCC2)nc2ccc(Cl)cc12
3. O=C(NCCN1CCCC1)c1cc(NCCC2CCOCC2)nc2ccc(Cl)cc12
4. O=C(NCCN1CCCC1)c1cc(NCCCN2CCOCC2)nc2ccc(F)cc12

*A*
[99.9, 99.8, 99.9, 93]

====

assay: AUC in Sprague-Dawley rat at 3 mg/kg, po administered via gavage by UPLC-MS/MS analysis; type: ADME, organism-based; design: dose 3 mg/kg; settings: in vivo
READOUT_NAME: AUC (ng·h/mL)
One number for each entry, in ng·h/mL.

*Q* What does the record list as AUC for O=C(NCCN1CCCC1)c1cc(-c2ccc(CN3CCOCC3)cc2F)nc2ccc(F)cc12 ?
*A* 507

====

experiment: Protein binding in CD1 mouse plasma measured after 5 hr by UPLC-MS/MS analysis based equilibrium dialysis method; assay type: ADME, cell-free; details: CD1, mouse, read-out: PPB (converted)
READOUT_NAME: fraction unbound at 5 h
Give bare numbers.

*Q* Need fraction unbound at 5 h of O=C(NCCN1CCCC1)c1cc(-c2ccc(CN3CCOCC3)cc2)nc2ccc(F)cc12 , thanks.
*A* 0.37

====

experiment: Tmax in NMRI mouse at 10 mg/kg, po administered as gavage by UPLC-MS/MS analysis; assay type: ADME, organism-based; details: in vivo
Consider the following compounds; for each one, report its Tmax.
One number for each entry, in h.

*Q* State the recorded Tmax for this entry: O=C(NCCN1CCCC1)c1cc(NCCCN2CCOCC2)nc2ccc(F)cc12
*A* 2

*Q* Another compound: O=C(NCCN1CCCC1)c1cc(NCCCCN2CCOCC2)nc2ccc(Cl)cc12
*A* 2

From here, focus on the item given below.
*Q* Would you mind telling me what Tmax value was observed for O=C(NCCN1CCCC1)c1cc(NCCC2CCOCC2)nc2ccc(Cl)cc12 ?
*A* 0.5

====

experiment: AUC in NMRI mouse at 3 mg/kg, po administered as gavage by UPLC-MS/MS analysis; format: ADME, organism-based; design: dose 3 mg/kg; settings: in vivo
READOUT_NAME: AUC (ng·h/mL)
One number for each entry, in ng·h/mL.

*Q* Tell me the measured AUC of O=C(NCCN1CCCC1)c1cc(-c2ccc(CN3CCOCC3)cc2)nc2ccc(F)cc12 , please.
*A* 2990
